The reported numbers originate from the domain aggregation screens of Martell et al. (2025).

Assay: soluble fraction after stress (log2 fold change); higher = more stays soluble; pooled small domains, quantitative proteomics
Details: stress: pH 4
soluble fraction (log2) of 0.04 or higher: label 1. Under 0.04: label 0.

biopolymer_sequence	category
HMNKSEFLNELEKRIRVLEKNEIKDILAEYSQHIDMRMGSGLSEAEAIKDFGDMDDLAAEILEAY	label 0
HMTSSQLYLIEEDMEGERLDAFLAEVIADLSRTAIKDLISNGRVLVDGQARKPSYRVKEGEQVLIHVPEAR	label 0
HMADLNQTDIDSITKSVGGVEQYKSLMDWAGKTLSQDAIDSFDDLVNTGNKGSIQLAVNGLVAQYQNDN	label 1
HMLAYQRTYEKILEDLRNDVYPVNSLLPPEPKLEEIYHVSRTTVRRAIAQLADEGYVKVKQGYGTVVLKN	label 1
HMAPGVHVEALLPYTAGSLVSQIREYGNVDAVEYRDTGILLQADVDERLAAQIMDQALEDPV	label 0
HMELDFNSVYRQLNHEQKQAYQSIKSVLEQKISGSELDKKLKQAQQAFVAKFKENPNFEVPK	label 1
HMFVEKDSIINKGNNSYNFVITDNNNKVLVEYNGLLPDLFKEEQGVVIEGRLKSDFIIHAFTVF	label 0
HMKIAPRTAENQQLRKMILEIYTTSKKRVGPAKVRRMLLRDYGISISIGRVYRLMSTMNLPKMS	label 1
HMDSGLEQAKTAALENAELETSQVTFIKAELDYDDGKKVYEIEFVTSAMKYEYQVKADDFSILEMSKETIE	label 0
HMKGRPTTAIITDERTNLRSGPGATNKTIAQAGAGEKLAIIDEKDGWYQVSRAGINGWVAGWVIDVAW	label 0
HMVAGPDEPLSDREQGVLDLLAEGLSNKAISKQLGISVATVKSHLSNIYGKLQAENRMQAVARARELGLM	label 0
HMHPVEPDDPDQHILFQHLRGQDQVHIDALIRLSGWTADKVSSTLLFMELQGLVKQLPGMYYALE	label 0
HMSDVVFRINANGLNVSGLANGERVSVYDTTGKLVTTAVSTQDNGTLNLPLKQSGGIYIARTQSGVSFKFT	label 1
HMPRTEILMVDEEMEGERLDAFVAEQLDELSRSLVKTLIENGEIRVDGKQQKPSYRLKAGEEIIVEIPA	label 0
HMHIDQVIRERRLALGLTQEELANKIGVSAPAVSKWEKRVSYPDITLLPALARILGTDVNTLLTFS	label 0
HMQILPAFLPENPELRARLANHSLEELTEILKQYKTLHNSTDVDTVKRAIRAIEIEEYYAVHPV	label 0
